Values were extracted from ChEMBL document CHEMBL3507680.

Assay Protocol: Human HepG2 cell viability assay in 384 well format
Format: toxicity, cell-based
Set-up: dose 125 nL, time 70.5 hour; concentration not given beside the values
Recorded Conditions: HepG2 cells, read-out: Inhibition
Measurement Label: cytotoxicity at 70.5 h (%)
The reply should contain only the number, in %.

Which value of cytotoxicity at 70.5 h has been reported for Cc1ccc(CC2COCCN(S(=O)(=O)c3ccccc3)C2)nc1 (configuration not stated) in the records? -0.967

Which value of cytotoxicity at 70.5 h has been reported for "CN1CCC/C1=N\S(=O)(=O)c1ccc(NC(=O)c2ccco2)cc1" in the records? 11.9

Which value of cytotoxicity at 70.5 h has been reported for "CC(C)c1cc(C(=O)NCCN2CCCS2(=O)=O)n[nH]1" in the records? -19.6

Which value of cytotoxicity at 70.5 h has been reported for Cc1nn(C)c(C)c1C(C)NC(=O)Nc1cccnc1N1CCCC1 (configuration not stated) in the records? -15.8

Which value of cytotoxicity at 70.5 h has been reported for CCN(C(=O)c1ccc(-c2ccccc2)nc1C)C1CC(=O)NC1=O (configuration not stated) in the records? -5.68

Which value of cytotoxicity at 70.5 h has been reported for Cc1ccc(CC(=O)N(CC2CN(C)CCO2)c2nccs2)cn1 (configuration not stated) in the records? 11.5

Which value of cytotoxicity at 70.5 h has been reported for O=C(Cc1cccc(O)c1)NC1CCN(c2cccc(Cl)c2)C1 (configuration not stated) in the records? -3.87

Which value of cytotoxicity at 70.5 h has been reported for O=C1CCC2(CCCN(C(=O)NCc3ccccc3)CC2)N1 (configuration not stated) in the records? -8.58

Which value of cytotoxicity at 70.5 h has been reported for CCc1cnc(CN2CCC(N(C)Cc3noc(C)n3)C2)o1 (configuration not stated) in the records? 17

Which value of cytotoxicity at 70.5 h has been reported for CS(=O)(=O)N1CCCC12CCCN(S(=O)(=O)c1ccc(F)cc1)C2 (configuration not stated) in the records? -8.04

Which value of cytotoxicity at 70.5 h has been reported for "COC(=O)c1ccccc1S(=O)(=O)NC(=O)c1cccc2c1OCCO2" in the records? -100

Which value of cytotoxicity at 70.5 h has been reported for CCc1n[nH]c(C2CN(C(=O)c3ccc4c(c3)CCCC4)CCO2)n1 (configuration not stated) in the records? -8.34

Which value of cytotoxicity at 70.5 h has been reported for CC(C)(N)C(=O)N1CCCC(c2cncc(Oc3cccnc3)n2)C1 (configuration not stated) in the records? -3.9

Which value of cytotoxicity at 70.5 h has been reported for CN(Cc1ccsc1)C(=O)CN1CCOC(Cn2cccn2)C1 (configuration not stated) in the records? 29

Which value of cytotoxicity at 70.5 h has been reported for Cc1cc(C2CCCN2CCCS(=O)(=O)c2ccccc2)no1 (configuration not stated) in the records? -4.85

Which value of cytotoxicity at 70.5 h has been reported for CCCN1CCCn2nc(CNC(=O)CC(C)n3ccnc3C)cc2C1 (configuration not stated) in the records? 9.04

Which value of cytotoxicity at 70.5 h has been reported for "CCCn1nccc1-c1cc(C2CCN(S(C)(=O)=O)CC2)nc(C)n1" in the records? -6.18

---

Assay Protocol: Human HepG2 cell viability assay in 384 well format
Assay type: toxicity, cell-based
Design: dose 125 nL, time 70.5 hour; concentration not given beside the values
Recorded Conditions: HepG2 cells, read-out: Inhibition
Please provide measured cytotoxicity at 70.5 h for the entries that follow.
The reply should contain only the number, in %.

Which value of cytotoxicity at 70.5 h has been reported for "Cc1nnc(N2CC[C@H]3C[C@@H](C(=O)N4CCCC4)O[C@H]3C2)s1" in the records? 12.6

Which value of cytotoxicity at 70.5 h has been reported for "Cc1cccc(Oc2nccnc2C2CCN(C(=O)C(C)(C)N)CC2)c1" in the records? -4.07

Which value of cytotoxicity at 70.5 h has been reported for "O=C(NCc1ccco1)N1CCC(n2cc(-c3ccccn3)nn2)CC1" in the records? 0.624

Which value of cytotoxicity at 70.5 h has been reported for Cc1cccc(Nc2cc(C)nc(C3CCN(C(C)C)C3)n2)n1 (stereo not given) in the records? 15.7

Which value of cytotoxicity at 70.5 h has been reported for "COc1ccccc1OCc1nc2cc3c(cc2c(=O)o1)OCCCO3" in the records? 31.8

Which value of cytotoxicity at 70.5 h has been reported for Cc1cccc(N2CCCC3(C2)CN(S(=O)(=O)C2CC2)CCO3)c1 (stereo not given) in the records? -3.02

Which value of cytotoxicity at 70.5 h has been reported for "Cn1cc(C(=O)N2CCN(Cc3ccccn3)CC2)ccc1=O" in the records? 19.1

Which value of cytotoxicity at 70.5 h has been reported for "COc1ccc(-c2cnc3c(c2)CN(C2CC2)C(=O)CCN3)cc1" in the records? -4.59

Which value of cytotoxicity at 70.5 h has been reported for COCC1CN(C(=O)c2cccc(C)n2)Cc2ncnn2C1 (stereo not given) in the records? 17.7

Which value of cytotoxicity at 70.5 h has been reported for O=C1CC2(CCSC2)C(=O)N1Cc1coc(-c2ccc(F)cc2)n1 (stereo not given) in the records? -3.42
